Cited source: patent US11919918B2

- Assayed system: human P2X2/3 receptor (Homo sapiens (Human), UniProt P56373+Q9UBL9)
- Sequence (Q9UBL9 whole entry): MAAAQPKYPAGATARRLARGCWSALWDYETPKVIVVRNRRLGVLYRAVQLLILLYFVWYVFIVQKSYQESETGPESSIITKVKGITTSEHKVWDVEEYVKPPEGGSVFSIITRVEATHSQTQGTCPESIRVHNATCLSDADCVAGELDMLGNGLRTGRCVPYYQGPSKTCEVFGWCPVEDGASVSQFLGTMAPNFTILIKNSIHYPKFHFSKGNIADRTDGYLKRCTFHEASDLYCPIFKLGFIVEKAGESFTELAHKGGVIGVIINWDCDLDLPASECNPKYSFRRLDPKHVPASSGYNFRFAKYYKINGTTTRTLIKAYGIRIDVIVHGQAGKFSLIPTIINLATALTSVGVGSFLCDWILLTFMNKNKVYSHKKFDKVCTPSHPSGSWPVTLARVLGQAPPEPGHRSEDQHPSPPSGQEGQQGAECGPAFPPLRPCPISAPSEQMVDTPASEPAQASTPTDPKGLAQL
- Sequence (P56373 whole entry): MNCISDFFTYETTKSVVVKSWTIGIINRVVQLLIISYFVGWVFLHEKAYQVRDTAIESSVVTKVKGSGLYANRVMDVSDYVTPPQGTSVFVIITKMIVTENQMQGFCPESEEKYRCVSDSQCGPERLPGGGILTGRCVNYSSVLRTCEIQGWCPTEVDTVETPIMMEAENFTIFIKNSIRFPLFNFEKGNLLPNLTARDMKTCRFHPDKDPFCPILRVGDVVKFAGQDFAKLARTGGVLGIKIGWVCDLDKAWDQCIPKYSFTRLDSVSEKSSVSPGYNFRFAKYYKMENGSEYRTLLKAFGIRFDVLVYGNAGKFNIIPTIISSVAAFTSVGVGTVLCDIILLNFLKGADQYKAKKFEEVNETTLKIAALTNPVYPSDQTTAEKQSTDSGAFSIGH
- Assay info: Inhibitory activity on human P2X2/3 receptor (calcium 6 dye FLIPR assay, agonist α,β-MeATP)
- Study conditions: HEK293-P2X2/3 stably expressing cell line, FLIPR Tetra
In this section, each of the compounds is paired with its reported IC50.
Numeric answer only, unit µM assumed.

C#Cc1cc(Oc2cnc(NC(C)C)nc2N)c(C(C)C)cn1    0.125
C#Cc1cc(Oc2cnc(NCCO)nc2N)c(C(C)C)cn1    0.106

Q. So what does the record say about IC50 for CCNc1cc(Oc2cnc(N)nc2N)c(C(C)C)cn1 ?
A. 0.366

###

- Assayed system: human P2X2/3 receptor (Homo sapiens (Human), UniProt P56373+Q9UBL9)
- Assay info: Inhibitory activity on human P2X2/3 receptor (calcium 6 dye FLIPR assay, agonist α,β-MeATP)
- Study conditions: HEK293-P2X2/3 stably expressing cell line, FLIPR Tetra
Parameter measured: pIC50
Kindly note that pIC50 refers to -log10 of the concentration in mol/L and answer with the value alone.

CC(C)c1cnc(N(C)C2CC2)cc1Oc1cnc(N)nc1N [Compound C65]    6.30
CCSc1cc(Oc2cnc(N)nc2N)c(C(C)C)cn1 [Compound C117]    6.31

Next, consider the following compound.
Q. Data request, read-out pIC50, for C#Cc1cc(Oc2cnc(N)nc2N)c(C(=C)C)cn1 [Compound C215]
A. 6.71

###

pIC50 overview
- Assayed system: UniProt:P56373
- Assay info: Inhibitory activity on human P2X3 receptor (calcium 6 dye FLIPR assay, agonist α,β-MeATP)
- Study conditions: HEK293-P2X3 stably expressing cell line, FLIPR Tetra
pIC50 (log units): -log10 of the concentration in mol/L.

The examples below pair each entry with its known result.
CC(C)Nc1ncc(Oc2cc(Br)ncc2C(C)C)c(N)n1 [Compound C239]    6.97
CC(C)c1cnc(N(C)C2CC2)cc1Oc1cnc(N)nc1N [Compound C65]    6.48

Q. Any idea what pIC50 was measured for CC(C)c1cnc(/C=C/c2ccccc2)cc1Oc1cnc(N)nc1N [Compound C138] ?
A. 6.20

Q. What does the record list as pIC50 for CC(C)c1cnc(Br)cc1Sc1cnc(N)nc1N [Compound C85] ?
A. 7.11

Q. pIC50 for CC(C)c1ncc(Cl)cc1Oc1cnc(N)nc1N [Reference Compound C10, reference compound] ?
A. 5.60

###

- Assayed system: human P2X3 receptor (Homo sapiens (Human))
- Assay info: Inhibitory activity on human P2X3 receptor (calcium 6 dye FLIPR assay, agonist α,β-MeATP)
- Study conditions: HEK293-P2X3 stably expressing cell line, FLIPR Tetra
Parameter measured: IC50 (nM)
The reply should be a number in nM, with the unit left off.

Answered cases to consult:
CNc1ncc(Oc2cc(Br)ncc2C(C)C)c(NC)n1    948
CCSc1cc(Sc2cnc(N)nc2N)c(C(C)C)cn1    731
CC(C)c1cnc(Br)cc1Oc1cnc(NC2CC2)nc1N    104

Q. # get_value(readout= IC50, system= human P2X3 receptor (Homo sapiens (Human))) for C=C(C)c1cnc(OC)cc1Oc1cnc(N)nc1N
A. 46

Q. For human P2X3 receptor (Homo sapiens (Human)), provide IC50 of CC(C)c1cnc(CC(=O)c2ccc(N(C)C)cc2)cc1Oc1cnc(N)nc1N please.
A. 926

Q. Give IC50 (human P2X3 receptor (Homo sapiens (Human))) of the following molecule: CNc1cc(Oc2cnc(N)nc2N)c(C(C)C)cn1
A. 37

Q. API: value(readout=IC50, system=human P2X3 receptor (Homo sapiens (Human))) for record CC(C)c1cnc(Br)cc1Oc1cnc(N)nc1NC1CCCCC1
A. 207

Q. What value of IC50 on human P2X3 receptor (Homo sapiens (Human)) does CCSc1cc(Oc2cnc(N)nc2N)c(C(C)C)cn1 have?
A. 151
